B1: GFOD1 (parent)
chain: SDDFCTFQMVLEGGVCCTVTLNFN

Variants of: B1
Test: protein stability index of a GFP-peptide fusion (GPS, HEK-293T) (PSI 1-6); higher = more stable;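 also: lentivirally expressed fusions sorted by FACS into six bins by GFP to DsRed ratio, PSI derived from sequencing read proportions per bin multiplied by bin number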
Details: c terminus: a fixed tail appended
Cut-off 3 on protein stability index, inclusive. At or above means TRUE; below means FALSE.

{"mutation code": "C17L", "group label": "TRUE"}
{"mutation code": "V19T", "group label": "TRUE"}
{"mutation code": "C17I", "group label": "FALSE"}
{"mutation code": "L11D", "group label": "TRUE"}
{"mutation code": "C5Q", "group label": "TRUE"}
{"mutation code": "V10Q", "group label": "FALSE"}
{"mutation code": "L11K", "group label": "FALSE"}
{"mutation code": "G13L", "group label": "TRUE"}
{"mutation code": "V19I", "group label": "TRUE"}
{"mutation code": "G14P", "group label": "FALSE"}
{"mutation code": "F4L", "group label": "TRUE"}
